Measured Kd of individual entries
- TARGET: (GTP)K-RAS4B^wt:SOS1 complex (Homo sapiens, UniProt P01116+Q07889)
- Sequence (P01116 1-188 isoform P01116-2): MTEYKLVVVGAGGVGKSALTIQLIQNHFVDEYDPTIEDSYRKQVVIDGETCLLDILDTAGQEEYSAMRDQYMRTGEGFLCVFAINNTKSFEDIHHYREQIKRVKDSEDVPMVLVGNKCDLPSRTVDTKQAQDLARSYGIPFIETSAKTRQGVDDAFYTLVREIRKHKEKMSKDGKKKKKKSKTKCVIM
- Sequence (Q07889 564-1049 limits assumed): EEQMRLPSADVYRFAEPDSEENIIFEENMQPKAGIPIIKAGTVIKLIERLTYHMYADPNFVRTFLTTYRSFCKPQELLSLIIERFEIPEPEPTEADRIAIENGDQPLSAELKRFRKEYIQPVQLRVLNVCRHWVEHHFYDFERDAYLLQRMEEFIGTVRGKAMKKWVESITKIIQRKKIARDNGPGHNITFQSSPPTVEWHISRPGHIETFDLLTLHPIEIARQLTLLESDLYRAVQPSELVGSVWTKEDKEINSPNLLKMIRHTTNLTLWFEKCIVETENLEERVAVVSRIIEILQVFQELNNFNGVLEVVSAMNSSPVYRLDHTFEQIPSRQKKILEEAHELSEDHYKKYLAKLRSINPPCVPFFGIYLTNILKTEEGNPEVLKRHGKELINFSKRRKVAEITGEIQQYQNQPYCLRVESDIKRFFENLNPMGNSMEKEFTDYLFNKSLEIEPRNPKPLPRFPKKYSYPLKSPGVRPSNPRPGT
- EXPERIMENT DESCRIPTION: HTRF K-RAS^wt:SOS protein-protein interaction assay
READOUT: Kd

>  <COMPOUND>
C[C@H]1[C@H](C)CC[C@]2(C(=O)O)CC[C@]3(C)C(=CC[C@@H]4[C@@]5(C)CC[C@H](OC(=O)c6c(F)ccc(F)c6C(=O)O)C(C)(C)[C@@H]5CC[C@]43C)[C@H]12

>  <RECORDED MEASUREMENT>
> 50 µM

$$$$
>  <COMPOUND>
C=C(C)[C@@H]1CC[C@]2(COC(=O)CCC(=O)O)CC[C@]3(C)[C@H](CC[C@@H]4[C@@]5(C)CC[C@H](OC(=O)c6c(F)ccc(F)c6C(=O)O)C(C)(C)[C@@H]5CC[C@]43C)[C@@H]12

>  <RECORDED MEASUREMENT>
37.4 µM

$$$$
>  <COMPOUND>
C=C(C)[C@@H]1CC[C@]2(COC(=O)CCC(=O)O)CC[C@]3(C)[C@H](CC[C@@H]4[C@@]5(C)CC[C@H](OC(=O)c6cc(F)c(F)cc6C(=O)O)C(C)(C)[C@@H]5CC[C@]43C)[C@@H]12

>  <RECORDED MEASUREMENT>
> 100 µM

$$$$
>  <COMPOUND>
C=C(C)[C@@H]1CC[C@]2(C(=O)O)CC[C@]3(C)[C@H](CC[C@@H]4[C@@]5(C)CC[C@H](OC(=O)c6sccc6C(=O)O)C(C)(C)[C@@H]5CC[C@]43C)[C@@H]12

>  <RECORDED MEASUREMENT>
> 50 µM

$$$$
>  <COMPOUND>
C[C@H]1[C@H](C)CC[C@]2(C(=O)O)CC[C@]3(C)C(=CC[C@@H]4[C@@]5(C)CC[C@H](OC(=O)c6cc(F)c(F)cc6C(=O)O)C(C)(C)[C@@H]5CC[C@]43C)[C@H]12

>  <RECORDED MEASUREMENT>
> 50 µM

$$$$
>  <COMPOUND>
COc1cc(C(=O)O)c(C(=O)OC2CCC3(C)C(CCC4(C)C3CC=C3C5CC(C)(C)CCC5(C(=O)O)CCC34C)C2(C)C)cc1OC (stereo not shown)

>  <RECORDED MEASUREMENT>
> 50 µM

$$$$
>  <COMPOUND>
C=C(C)[C@@H]1CC[C@]2(COC(=O)CCC(=O)O)CC[C@]3(C)[C@H](CC[C@@H]4[C@@]5(C)CC[C@H](OC(=O)CCC(=O)O)C(C)(C)[C@@H]5CC[C@]43C)[C@@H]12

>  <RECORDED MEASUREMENT>
> 100 µM

$$$$
